# Measured Target: FGFR3 (UniProt P22607)
# Sequence (P22607 whole entry, looked up): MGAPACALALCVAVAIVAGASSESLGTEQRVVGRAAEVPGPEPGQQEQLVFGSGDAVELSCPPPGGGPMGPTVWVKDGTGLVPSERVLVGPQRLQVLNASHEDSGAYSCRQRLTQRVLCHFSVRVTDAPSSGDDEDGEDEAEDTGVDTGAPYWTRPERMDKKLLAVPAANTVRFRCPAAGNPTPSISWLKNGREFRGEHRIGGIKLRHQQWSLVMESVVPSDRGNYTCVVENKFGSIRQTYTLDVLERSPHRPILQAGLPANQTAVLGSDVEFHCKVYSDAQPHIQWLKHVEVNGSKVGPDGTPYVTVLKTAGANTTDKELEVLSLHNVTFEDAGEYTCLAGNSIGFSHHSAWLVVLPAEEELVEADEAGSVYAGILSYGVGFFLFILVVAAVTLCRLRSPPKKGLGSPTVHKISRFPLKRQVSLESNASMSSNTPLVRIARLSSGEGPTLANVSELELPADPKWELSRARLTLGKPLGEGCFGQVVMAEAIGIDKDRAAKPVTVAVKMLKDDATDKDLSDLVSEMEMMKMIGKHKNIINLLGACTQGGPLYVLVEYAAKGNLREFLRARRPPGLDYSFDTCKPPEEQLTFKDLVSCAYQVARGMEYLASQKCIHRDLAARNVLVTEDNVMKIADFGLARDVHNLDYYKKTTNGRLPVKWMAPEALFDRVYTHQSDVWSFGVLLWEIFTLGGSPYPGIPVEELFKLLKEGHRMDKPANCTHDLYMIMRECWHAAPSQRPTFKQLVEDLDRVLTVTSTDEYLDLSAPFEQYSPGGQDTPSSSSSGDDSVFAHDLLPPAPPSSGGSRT
# Experimental Details: phosphorylation enrichment, bacterial display (enrichment ratio); higher = better substrate or ligand; peptides without Tyr show the background;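 also: 11-residue human phosphosite peptides and single-mutation variants displayed on the E. coli surface, counted by deep sequencing, each peptide's frequency after selection divided by its frequency in the unselected input library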;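 also: frequency after pTyr selection over input frequency; kinase dosed for 20-30% of maximal phosphorylation in three min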
Listed sequences paired with reported phosphorylation enrichment

{"Query Sequence": "KAFDMYSGDVM [FAM3D_Y122]", "phosphorylation enrichment": 0.569}
{"Query Sequence": "PMFTKYGNGLL [RPGRIP1L_Y196_S199G]", "phosphorylation enrichment": 0.668}
{"Query Sequence": "GQAPGYSFTAA [CYCS_Y47_YF]", "phosphorylation enrichment": 0.428}
{"Query Sequence": "CTAIHYNFMCN [TP53_Y234_T231A_YF]", "phosphorylation enrichment": 0.614}
{"Query Sequence": "LESETYRRLLD [KRT12_Y429_I426S]", "phosphorylation enrichment": 1.02}
{"Query Sequence": "LNCAGYCDALE [MTUS1_Y151]", "phosphorylation enrichment": 0.906}
{"Query Sequence": "RGVVMYTSKDR [ZG16B_Y136_M133V]", "phosphorylation enrichment": 0.568}
{"Query Sequence": "ISDNAYQFMLT [MYH7_Y162_YF]", "phosphorylation enrichment": 1.51}
{"Query Sequence": "QRRNVYYYSYL [PTEN_Y176_Y174N]", "phosphorylation enrichment": 11.6}
{"Query Sequence": "HGEAFYSEVKA [PAK5_Y182_P187A_YF]", "phosphorylation enrichment": 2.63}
{"Query Sequence": "DYSLKYPTDIP [APC_Y1183_A1184P]", "phosphorylation enrichment": 0.866}
{"Query Sequence": "MRAIIYNSSTA [PLEKHA7_Y243_L241I]", "phosphorylation enrichment": 0.623}
{"Query Sequence": "LERFIYNRQEF [HLA-DPB1_Y59_E62Q_YF]", "phosphorylation enrichment": 0.532}
{"Query Sequence": "REGAKYVSHGT [ASS1_Y113_A118T]", "phosphorylation enrichment": 0.482}
{"Query Sequence": "VYAADYYKLLG [ROR2_Y645]", "phosphorylation enrichment": 10.1}
{"Query Sequence": "HDHFGYRQSVT [CD55_Y245_R240H_YF]", "phosphorylation enrichment": 0.528}
{"Query Sequence": "HCEDGYPGGSD [CTNND1_Y221_Y217C]", "phosphorylation enrichment": 1.15}
{"Query Sequence": "VGTKRYMAPDV [ACVRL1_Y375_E379D]", "phosphorylation enrichment": 0.412}
{"Query Sequence": "ANVIHYFPTQA [SLC25A4_Y81_R80H]", "phosphorylation enrichment": 0.56}
{"Query Sequence": "TTPAVYARVAK [CTRB2_Y246]", "phosphorylation enrichment": 0.436}
{"Query Sequence": "RQNNSYTCYTA [SLC20A2_Y386_R382Q]", "phosphorylation enrichment": 0.659}
{"Query Sequence": "DSGKLYALDVL [INO80_Y1104]", "phosphorylation enrichment": 0.721}
{"Query Sequence": "ILTLKYPIERG [ACTA1_Y71_H75R]", "phosphorylation enrichment": 0.655}
{"Query Sequence": "LTERGYSFTTT [ACTB_Y198]", "phosphorylation enrichment": 0.78}
{"Query Sequence": "KYVVVYFRETD [IL17RB_Y447_I451T]", "phosphorylation enrichment": 0.708}
{"Query Sequence": "EIELAYRRRPP [GRIN2B_Y1109]", "phosphorylation enrichment": 0.455}
{"Query Sequence": "KELANYYKLHH [AK7_Y390]", "phosphorylation enrichment": 1.83}
{"Query Sequence": "GDYLSYREFHL [ERBIN_Y1107_S1112L]", "phosphorylation enrichment": 3.96}
{"Query Sequence": "GISDEYHVIQH [GCDH_Y398_R402Q]", "phosphorylation enrichment": 3.78}
